Assay Method Text: qHTS assay to identify small molecule antagonists of the retinoid-related orphan receptor gamma (ROR-gamma) signaling pathway - cell viability counter screen (AID 1159520); further: nearly all actives have a fitted effect of over 50% in size
Test Settings: Tet-on RORgamma CHO cells viability, ATP luminescence, 16 h; series mostly up to 92.4 µM
Inconclusive results are not listed. Activity calls are given as the source filed them. The call rests on the fitted dose curve; in most records, active means well fitted cell-killing curve with a large enough effect in the repeat runs; inconclusive means weak or mixed curves, or effect the other way; inactive means no such curve, though single readings can be large or run the other way.
Response enum: active, inactive

Example entries and their recorded answers appear below.
Molecule: CNC1(C)C2CCC(C2)C1(C)C (stereo not drawn)
Assigned Class: inactive
--
Molecule: NC(N)=Nc1nc(CSCC/C(N)=N/S(N)(=O)=O)cs1
Assigned Class: inactive
--
Molecule: CC(=O)CC(C)=O
Assigned Class: inactive
--
Molecule: CC[C@@H](N)CO
Assigned Class: inactive
--
Molecule: Cc1cccc([N+](=O)[O-])c1C(=O)O
Assigned Class: inactive

**Query** I would be grateful if you could indicate the recorded call for "CCCCCC(=O)O[C@]1(C(C)=O)CC[C@H]2[C@@H]3CCC4=CC(=O)CC[C@]4(C)[C@H]3CC[C@@]21C" .
**Result** active

**Query** COc1ccc(CCN(C)CCCC(C#N)(c2ccc(OC)c(OC)c2)C(C)C)cc1OC (stereo not drawn) , same question.
**Result** inactive

**Query** Follow-up item: CC1COc2c(N3CCN(C)CC3)c(F)cc3c(=O)c(C(=O)O)cn1c23 (stereo not drawn)
**Result** inactive

**Query** Try this molecule next: CCCCC(CC)COC(=O)CC(C(=O)OCC(CC)CCCC)S(=O)(=O)O (stereo not drawn)
**Result** inactive

**Query** Now this one: "CCC(C)(C)C(=O)O[C@H]1C[C@@H](C)C=C2C=C[C@H](C)[C@H](CC[C@@H]3C[C@@H](O)CC(=O)O3)[C@H]21"
**Result** active

**Query** Follow-up item: "O=C1Nc2ccccc2C1(c1ccc(O)cc1)c1ccc(O)cc1"
**Result** inactive

**Query** Another molecule to look at: "CCCCN(CCO)CCCC"
**Result** inactive

**Query** Then "C=CC(=O)OCCCCCCCC" ?
**Result** inactive

**Query** Try "C=CC(=O)OCCCCCCOC(=O)C=C" next.
**Result** inactive

**Query** What would you report for "COC(=O)c1cccc(C(=O)OC)c1" ?
**Result** inactive

**Query** Similarly, CCn1cc(C(=O)O)c(=O)c2cc(F)c(N3CCNC(C)C3)c(F)c21 (stereo not drawn) ?
**Result** inactive

**Query** Also check "CC(C)(C)c1ccccc1"
**Result** inactive

**Query** Likewise for "CC(C)CCOC(=O)c1ccc(N(C)C)cc1" ?
**Result** inactive

**Query** "COc1ccc(COC(C)=O)cc1" ?
**Result** inactive

**Query** Another molecule: "CCc1ccc(C(c2ccc(CC)cc2)C(Cl)Cl)cc1"
**Result** inactive

**Query** Subsequent entry: CC(C)(C)NCC(O)c1cc(O)cc(O)c1 (stereo not drawn)
**Result** inactive

**Query** What about BrC1CCC(Br)C(Br)CCC(Br)C(Br)CCC1Br (stereo not drawn) ?
**Result** active

**Query** Here is the next molecule: CCN(CC)C(=O)Nc1ccc(OCC(O)CNC(C)(C)C)c(C(C)=O)c1 (stereo not drawn)
**Result** inactive

**Query** Consider next the molecule "CCOc1ccccc1C(N)=O" in the same way.
**Result** inactive

**Query** For "CCc1cc(C(C)(C)C)c(O)c(C(C)(C)C)c1" then?
**Result** inactive

// provenance: PubChem BioAssay (Tox21)
